# Tested on: A549-ACTB-RAB5A
# procedure.summary: phenotypically active (imaging signature differs from DMSO and reproducible) at any of 0.3-9 uM (binary (1 = active, 0 = inactive)); higher = active
# assay.context: treatment time: 24 h
Counter-ions that a name gives are not always drawn.
Would you mind answering with one of these outcomes? label 1 for active, label 0 for inactive

# lookup: test call for O=C1NCCN1CCN1CCC(c2cn(-c3ccc(F)cc3)c3ccc(Cl)cc23)CC1
label 1

Next:
# lookup: test call for CC(=O)c1ccc(S(=O)(=O)NC(=O)NC2CCCCC2)cc1 [acetohexamide]
label 0

# lookup: test call for Cc1cc(/N=N/c2ccc(S(=O)(=O)Nc3ccccn3)cc2)c(N)cc1O
label 1

# lookup: test call for CO[C@H]1C=CC=C(C)C(=O)NC2=CC(=O)C(NCCN(C)C)=C(C[C@@H](C)C[C@H](OC)[C@H](O)[C@@H](C)C=C(C)[C@@H]1OC(N)=O)C2=O [17-DMAG hydrochloride]
label 1

# lookup: test call for COc1ccc(S(=O)(=O)Nc2cccnc2Nc2ccc(O)cc2)cc1
label 1

# lookup: test call for COc1cc2c(cc1NS(=O)(=O)c1ccc(Br)cc1C)n(C)c(=O)n2C
label 1

# lookup: test call for OCC(CO)N[C@H]1C[C@](O)(CO)[C@@H](O)[C@H](O)[C@H]1O
label 0

# lookup: test call for Cc1ccc(C(=O)Oc2ccc(C(O)CNC(C)(C)C)cc2OC(=O)c2ccc(C)cc2)cc1 (stereo unspecified)
label 0

# lookup: test call for CC(=O)O[C@H]1C(=O)[C@@]2(C)[C@H]([C@H](OC(=O)c3ccccc3)[C@]3(O)C[C@H](OC(=O)[C@H](O)[C@@H](NC(=O)c4ccccc4)c4ccccc4)C(C)=C1C3(C)C)[C@]1(OC(C)=O)CO[C@@H]1C[C@@H]2O
label 1

# lookup: test call for CN1C(=O)CC(C)(c2ccccc2)C1=O (stereo unspecified) [methsuximide]
label 0

# lookup: test call for OCCN1C[C@H](O)[C@@H](O)[C@H](O)[C@H]1CO
label 0

# lookup: test call for CCc1nn(CCCN2CCN(c3cccc(Cl)c3)CC2)c(=O)n1CCOc1ccccc1
label 0

# lookup: test call for CCOC(=O)Nc1cc(-c2ccc(C)c(NS(C)(=O)=O)c2)nn2c(C)nnc12
label 1

# lookup: test call for CC[N+](CC)(CCNC(=O)C(=O)NCC[N+](CC)(CC)Cc1ccccc1Cl)Cc1ccccc1Cl
label 0

# lookup: test call for CCN1C(C)(C)CC(Oc2ccc(C(=O)Nc3ccc(NC(=O)Nc4cc(C(C)(C)C)on4)cc3)nc2)CC1(C)C
label 0

# lookup: test call for O=C1CCc2c(ccc3ccccc23)O1
label 0

----------
# Test system: HepG2-CANX-COX4
# procedure.summary: phenotypically active (imaging signature differs from DMSO and reproducible) at any of 0.3-9 uM (binary (1 = active, 0 = inactive)); higher = active
# assay.context: treatment time: 24 h
phenotypically active by entry:
Write no unit; give the number alone.

The measured phenotypically active associated with NS(=O)(=O)c1cc(Cl)c(Cl)c(S(N)(=O)=O)c1 [diclofenamide] reads 0

The measured phenotypically active associated with CCn1c(=O)n([C@H]2CCCN(c3nccc(-c4cc5ccccc5o4)n3)C2)c2ccccc21 reads 0

The measured phenotypically active associated with COc1cc2c(Nc3ccc(Br)cc3F)ncnc2cc1OCC1CCN(C)CC1 reads 1

The measured phenotypically active associated with OCC(CO)N[C@H]1C[C@](O)(CO)[C@@H](O)[C@H](O)[C@H]1O reads 0

Next:
The measured phenotypically active associated with O[C@H](CNC[C@H](O)[C@@H]1CCc2cc(F)ccc2O1)[C@@H]1CCc2cc(F)ccc2O1 reads 0

The measured phenotypically active associated with COc1cc(C)c(Sc2cnc(NC(=O)c3ccc(CNC(C)C(C)(C)C)cc3)s2)cc1C(=O)N1CCN(C(C)=O)CC1 (stereo not drawn) reads 1

The measured phenotypically active associated with C(=C/c1ccccc1)/CN1CCN(C(c2ccccc2)c2ccccc2)CC1 reads 0

The measured phenotypically active associated with CC(C)N(CCCNC(=O)Nc1ccc(C(C)(C)C)cc1)C[C@H]1O[C@@H](n2cc(Br)c3c(N)ncnc32)[C@H](O)[C@@H]1O reads 1

----------
# Test system: A549-ACTB-RAB5A
# procedure.summary: lowest phenotypically active concentration; higher = less potent
# assay.context: treatment time: 24 h
lowest phenotypically active concentration by entry:
Give the quantity in µM, number only.

The measured lowest phenotypically active concentration associated with CCN1/C(=C/C(C)=O)Sc2ccc(O)cc21 reads 9

The measured lowest phenotypically active concentration associated with Cc1noc(C)c1-c1ccc2c(c1)nc(CCc1ccc(OCCCN(C)C)cc1)n2CCN1CCOCC1 reads 9

The measured lowest phenotypically active concentration associated with CC(=O)NC1=NN(C(C)=O)C(C)(c2ccccc2)S1 (centres undefined) reads 3

The measured lowest phenotypically active concentration associated with Clc1ccc2c(c1)C(N1CCNCC1)=Nc1ccccc1O2 reads 3

The measured lowest phenotypically active concentration associated with Cc1ccc2nc(NCCN)c3ncc(C)n3c2c1 reads 3

The measured lowest phenotypically active concentration associated with CCCCNNC(=O)c1ccc(Br)cc1 reads 1

The measured lowest phenotypically active concentration associated with Cc1ccc(O)c([C@H](CCN(C(C)C)C(C)C)c2ccccc2)c1 [Tolterodine L-tartrate] reads 9

The measured lowest phenotypically active concentration associated with COc1cc(C)c(/C=C/C(C)=C/C=C/C(C)=C/C(=O)O)c(C)c1C reads 9

----------
# Test system: HepG2-CANX-COX4
# procedure.summary: phenotypically active (imaging signature differs from DMSO and reproducible) at any of 0.3-9 uM (binary (1 = active, 0 = inactive)); higher = active
# assay.context: treatment time: 24 h
readout.type: phenotypically active
Write no unit; give the number alone.

The measured phenotypically active associated with COc1ccccc1OCC(O)COC(N)=O (stereo not given) [methocarbamol] reads 0

The measured phenotypically active associated with CC(=O)[C@H]1CC[C@H]2[C@@H]3C=CC4=CC(=O)CC[C@@]4(C)[C@@H]3CC[C@]12C [dydrogesterone] reads 0

The measured phenotypically active associated with Nc1ncnc2c1ncn2[C@@H]1O[C@H](CO)[C@@H](O)[C@H]1O [Adenosine] reads 0

The measured phenotypically active associated with CCc1cc(-c2n[nH]c(C)c2-c2ccc3c(c2)OCCO3)c(O)cc1O reads 1

We now examine a further compound.
The measured phenotypically active associated with CN(C)c1ccc(C(=O)NCCCCCCC(=O)NO)cc1 reads 1

----------
# Test system: HepG2-GM130-SQSTM1
# procedure.summary: phenotypically active (imaging signature differs from DMSO and reproducible) at any of 0.3-9 uM (binary (1 = active, 0 = inactive)); higher = active
# assay.context: treatment time: 24 h
Would you mind answering with one of these outcomes? 1 (active), -1 (inactive)

See these solved cases before continuing.
# lookup: test call for CCN(CC)CCNC(=O)c1cc(Cl)c(N)cc1OC [metoclopramide]
-1

# lookup: test call for CC1=C(C(=O)Nc2cc3cn[nH]c3cc2F)C(c2ccc(C(F)(F)F)cc2)CC(=O)N1 (stereo not given)
1

# lookup: test call for CCCN(CCC)CCc1cccc2c1CC(=O)N2 [ropinirole]
-1

# lookup: test call for CC1(CN2CCC(n3c(=O)[nH]c4ccccc43)CC2)OCc2ccccc2-n2cccc21 (stereo not given)
-1

# lookup: test call for O=C(O)[C@]1(O)C[C@H](O)[C@@H](O)[C@@H](O)C1 [Quinic acid]
-1

Next:
# lookup: test call for N=C(N)NC(=O)Cc1c(Cl)cccc1Cl [guanfacine]
-1

# lookup: test call for COc1ccccc1C(=O)Nc1cc2c(cc1N1CCCC1)n(C)c(=O)n2C
-1

----------
# System: HepG2-TP53BP1-CLTA
# procedure.summary: phenotypically active (imaging signature differs from DMSO and reproducible) at any of 0.3-9 uM (binary (1 = active, 0 = inactive)); higher = active
# assay.context: treatment time: 24 h
Where a name gives a salt, the structure may show the parent alone.
readout.type: phenotypically active
Write no unit; give the number alone.

# example entries with known answers
Item CC[C@]1(O)C[C@@H]2CN(CCc3c([nH]c4ccccc34)[C@@](C(=O)OC)(c3cc4c(cc3OC)N(C=O)[C@H]3[C@@](O)(C(=O)OC)[C@H](OC(C)=O)[C@]5(CC)C=CCN6CC[C@]43[C@@H]65)C2)C1 was tested on HepG2-TP53BP1-CLTA; the reported phenotypically active is 1

Item OC[C@H]1NC[C@@H](O)[C@@H](O)[C@@H]1O [1-Deoxymannojirimycin hydrochloride] was tested on HepG2-TP53BP1-CLTA; the reported phenotypically active is 0

Item O=S(=O)(c1ccccc1)N(CC(F)(F)F)c1ccc(C(O)(C(F)(F)F)C(F)(F)F)cc1 was tested on HepG2-TP53BP1-CLTA; the reported phenotypically active is 0

Item Cc1ccc(-n2sc3ccccc3c2=O)cc1 was tested on HepG2-TP53BP1-CLTA; the reported phenotypically active is 0

Item CC(C)(C)Nc1nc(Nc2ccc(C(N)=O)cc2)cc(N)c1C#N was tested on HepG2-TP53BP1-CLTA; the reported phenotypically active is 1

Item COc1ccc([C@@H]2CNC(=O)C2)cc1OC1CCCC1 [(R)-(-)-Rolipram] was tested on HepG2-TP53BP1-CLTA; the reported phenotypically active is 0

Next:
Item COc1c(C=O)c(O)cc2c1C(=O)c1ccccc1C2=O was tested on HepG2-TP53BP1-CLTA; the reported phenotypically active is 1

Item Fc1ccccc1CNCc1ccc(-c2ccnc3[nH]ccc23)cc1 [OXA 06 dihydrochloride] was tested on HepG2-TP53BP1-CLTA; the reported phenotypically active is 1
